Values were extracted from the supplement of paper PMC10567573.

B1: SCARA5 (parent)
chain: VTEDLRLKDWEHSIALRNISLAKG

# Variants of: B1
# TEST DESCRIPTION: protein stability index of a GFP-peptide fusion (GPS, HEK-293T) (PSI 1-6); higher = more stable;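 also: lentivirally expressed fusions sorted by FACS into six bins by GFP to DsRed ratio, PSI derived from sequencing read proportions per bin multiplied by bin number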
# SETUP CONDITIONS: c terminus: a fixed tail appended
Class rule met: protein stability index at least 3. Class rule not met: protein stability index below 3.

Worked set:
T2L; rule not met
A15Q; rule met
L21T; rule met
D9N; rule met
K8W; rule not met

## Input Please check the record N18S and state if its protein stability index is at or above 3.
## Output rule met

## Input Evaluate K8I : protein stability index at minimum 3?
## Output rule not met

## Input Given the entry A22S , answer whether its protein stability index meets or surpasses 3.
## Output rule met

## Input Is protein stability index at least 3? Consider L7H
## Output rule met

## Input Say whether A15M shows protein stability index of 3 or more.
## Output rule met

## Input Does the variant G24T have recorded protein stability index that is 3 or more?
## Output rule met

## Input Could you verify whether the entry E11T shows protein stability index of no less than 3?
## Output rule not met
